- tested system: T1, human Nectin-4 extracellular antigen hNectin-4-His (human, UniProt Q96NY8 32-349)
- T1 construct: C-terminal 8xHis tag included
- T1 sequence: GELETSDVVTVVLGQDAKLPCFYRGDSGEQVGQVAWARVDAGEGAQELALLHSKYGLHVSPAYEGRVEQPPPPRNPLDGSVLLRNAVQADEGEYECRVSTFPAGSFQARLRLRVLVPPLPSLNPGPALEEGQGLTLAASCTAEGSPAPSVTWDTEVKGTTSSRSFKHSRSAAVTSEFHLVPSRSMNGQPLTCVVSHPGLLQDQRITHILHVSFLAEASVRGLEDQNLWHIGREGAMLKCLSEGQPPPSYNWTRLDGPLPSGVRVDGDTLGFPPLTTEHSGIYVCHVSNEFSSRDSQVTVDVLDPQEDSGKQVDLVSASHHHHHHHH
- protocol details: ELISA, phage scFv supernatant 1:50
attribute measured: OD value (OD)
// note: answer is a bare numeric in OD

Reported OD value of 1F3-1C4 scFv (scFv, V domains shown, phage clone supernatant) VH: EVQLVESGGGLVQPGGSLRLSCAASGFTFGDYGMSWVRQAPGKGLEWVSGIKPWGSGTYYADSVKGRFTISRDNSKNTLYLQMNSLRAEDTAVYYCARAELLAFDVYTASDYWGQGTLVTVSS VL: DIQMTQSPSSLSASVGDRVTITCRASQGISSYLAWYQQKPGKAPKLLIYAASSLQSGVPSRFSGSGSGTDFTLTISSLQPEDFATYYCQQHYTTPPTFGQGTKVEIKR : 1.59

Reported OD value of 10F4-1H4 scFv (scFv, V domains shown, phage clone supernatant) VH: EVQLVESGGGLVQPGGSLRLSCAASGFNFTNYWMSWVRQAPGKGLEWVSAISGTGGYTYYADSVKGRFTISRDNSKNTLYLQMNSLRAEDTAVYYCAREYSDVVDYVSVRTPLDYWGQGTLVTVSS VL: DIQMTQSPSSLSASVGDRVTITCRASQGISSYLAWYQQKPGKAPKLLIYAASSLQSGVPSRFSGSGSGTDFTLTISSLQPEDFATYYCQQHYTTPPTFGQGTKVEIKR : 1.38

Reported OD value of 1G8-2G12 scFv (scFv, V domains shown, phage clone supernatant) VH: EVQLVESGGGLVQPGGSLRLSCAASGFTFSNNAMSWVRQAPGKGLEWVSAIYASTDGRSYADSVKGRFTISRDNSKNTLYLQMNSLRAEDTAVYYCARQTEDRSYGYDLDYWGQGTLVTVSS VL: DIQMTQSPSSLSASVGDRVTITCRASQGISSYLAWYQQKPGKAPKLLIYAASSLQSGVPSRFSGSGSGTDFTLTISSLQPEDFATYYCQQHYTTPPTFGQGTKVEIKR : 1.5

Reported OD value of 1F3-1D12 scFv (scFv, V domains shown, phage clone supernatant) VH: EVQLVESGGGLVQPGGSLRLSCAASGYNFTDYGMSWVRQAPGKGLEWVSGISGSGDNKYYADSVKGRFTISRDNSKNTLYLQMNSLRAEDTAVYYCARAELLAFDVYTASDYWGQGTLVTVSS VL: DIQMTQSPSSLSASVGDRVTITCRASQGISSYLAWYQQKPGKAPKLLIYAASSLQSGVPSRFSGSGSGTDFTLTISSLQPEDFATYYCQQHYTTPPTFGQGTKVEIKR : 1.63

Reported OD value of 1G8-2A11 scFv (scFv, V domains shown, phage clone supernatant) VH: EVQLVESGGGLVQPGGSLRLSCAASGDSFYNYSMSWVRQAPGKGLEWVSRISSDGWETFYADSVKGRFTISRDNSKNTLYLQMNSLRAEDTAVYYCARQTEDRSYGYDLDYWGQGTLVTVSS VL: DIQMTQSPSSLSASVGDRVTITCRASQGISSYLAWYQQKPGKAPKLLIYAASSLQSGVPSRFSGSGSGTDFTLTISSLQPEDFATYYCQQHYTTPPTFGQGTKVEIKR : 1.54
